Tested on: L1210 leukemia ip in BDF1 mice, survival T/C
Test: NCI In Vivo Anticancer Drug Screen. Data for tumor model L1210 Leukemia (intraperitoneal) in B6D2F1 (BDF1) mice
Conditions: endpoint: mean survival time; dose: 400.0 mg/kg/injection; schedule: Q01DX009 (ip); vehicle: Klucel (hydroxypropylcellulose) (HPC); higher = longer survival
Inconclusive results and toxic doses are left out.

- compound: "O=[N+]([O-])c1ccc2cn[nH]c2c1"
  T/C: "107 % of control"
- compound: "COc1ccccc1NS(=O)(=O)c1ccc(Cl)cc1"
  T/C: "103 % of control"
- compound: "CC1C(N2CCOCC2)CS1(=O)=O (configuration not stated)"
  T/C: "103 % of control"
- compound: "O=C1CN(O)C(c2ccccc2)=c2cc(Cl)ccc2=N1"
  T/C: "108 % of control"
- compound: "COc1cc(NC(=O)Nc2cc(Cl)ccc2C)c(OC)cc1Cl"
  T/C: "88 % of control"
- compound: "OCc1cc(-c2ccc(Cl)cc2)nc2c(C(F)(F)F)cccc12"
  T/C: "109 % of control"
- compound: "CCCc1ccc2c(c1)CCCC2"
  T/C: "97 % of control"
- compound: "C=C(NC(C)=O)C(O)c1ccc([N+](=O)[O-])cc1 (configuration not stated)"
  T/C: "95 % of control"
- compound: "CCCCC/C=C/c1c(C)[nH]c2ccccc2c1=O"
  T/C: "99 % of control"
- compound: "S=P(c1ccccc1)(N1CCN(c2ccc(Cl)cc2)CC1)N1CCN(c2ccc(Cl)cc2)CC1"
  T/C: "93 % of control"
- compound: "c1ccc(CNC(Cc2ccccc2)c2ccc(OCc3ccccc3)cc2)cc1 (configuration not stated)"
  T/C: "89 % of control"
- compound: "O=C(NCCCl)N(c1ccccc1)c1cccc(C(F)(F)F)c1"
  T/C: "98 % of control"

* * *

Tested on: L1210 leukemia ip in BDF1 mice, survival T/C
Assay: NCI In Vivo Anticancer Drug Screen. Data for tumor model L1210 Leukemia (intraperitoneal) in B6D2F1 (BDF1) mice
Settings: endpoint: mean survival time; dose: 75.0 mg/kg/injection; schedule: Q01DX001 (ip); vehicle: saline; higher = longer survival
Inconclusive results and toxic doses are left out.
We begin with a simple list: items and their reported T/C.

- molecule: "OC(c1ccccc1)(c1ccc(-c2ccccc2)cc1)c1cccc2ccccc12 (centres undefined)"
  T/C: "92 % of control"
- molecule: "CC1CN1CO (centres undefined)"
  T/C: "109 % of control"
- molecule: "CCOC(=N)c1ccc(P(=O)(O)O)cc1"
  T/C: "97 % of control"
- molecule: "CCCC(NC)C(CC)CN (centres undefined)"
  T/C: "97 % of control"
- molecule: "CCc1ccc(P(=O)(O)O)cc1"
  T/C: "94 % of control"
- molecule: "c1cc[n+](CCNCC[n+]2ccccc2)cc1"
  T/C: "93 % of control"
- molecule: "CSC(CC(=O)O)C(=O)O (centres undefined)"
  T/C: "97 % of control"
- molecule: "Cc1c(Cl)cccc1N=C=S"
  T/C: "95 % of control"
- molecule: "ClCC(Br)CBr (centres undefined)"
  T/C: "106 % of control"

* * *

Test system: L1210 leukemia ip in BDF1 mice, survival T/C
Assay: NCI In Vivo Anticancer Drug Screen. Data for tumor model L1210 Leukemia (intraperitoneal) in B6D2F1 (BDF1) mice
Details: endpoint: mean survival time; dose: 400.0 mg/kg/injection; schedule: Q01DX009 (ip); vehicle: saline with Tween-80; higher = longer survival
Inconclusive results and toxic doses are left out.

- molecule: "CCC(=O)Nc1cccc(OC(=O)NCC(C)C)c1"
  T/C: "91 % of control"
- molecule: "COc1ccc(/C(C)=C\\C(=O)O)cc1"
  T/C: "101 % of control"
- molecule: "CCCC(C)C(C(=O)O)c1ccccc1 (configuration not stated)"
  T/C: "100 % of control"
- molecule: "CC(=O)c1c(O)cc(O)cc1O"
  T/C: "98 % of control"
- molecule: "CCN(C(=O)C(F)(F)F)C1(c2ccc(Cl)cc2)CCCCC1SSSC1CCCCC1(c1ccc(Cl)cc1)N(CC)C(=O)C(F)(F)F (configuration not stated)"
  T/C: "108 % of control"
- molecule: "Cc1ccc(Cl)cc1NC(=O)Nc1cccc2c(O)cccc12"
  T/C: "95 % of control"
- molecule: "C=CCc1cc(OC)c(OC)c(OC)c1"
  T/C: "101 % of control"
- molecule: "O=C1OC(=O)C2C3C=CC(C3)C12 (configuration not stated)"
  T/C: "88 % of control"
- molecule: "C/C=C/CCCCCCCC(=O)OCCCC"
  T/C: "95 % of control"
- molecule: "Cc1ccc([N+](=O)[O-])cc1NC(=O)SCCOC(=O)COc1ccc(Cl)cc1Cl"
  T/C: "105 % of control"
- molecule: "CCOC(=O)c1[nH]c(C)c(C(C)=O)c1C"
  T/C: "100 % of control"
- molecule: "CC1=CS(=O)(=O)CC(=O)N1"
  T/C: "97 % of control"

* * *

Test system: L1210 leukemia ip in BDF1 mice, survival T/C
Experiment: NCI In Vivo Anticancer Drug Screen. Data for tumor model L1210 Leukemia (intraperitoneal) in B6D2F1 (BDF1) mice
Details: endpoint: mean survival time; dose: 100.0 mg/kg/injection; schedule: Q01DX001 (ip); vehicle: saline; higher = longer survival
Inconclusive results and toxic doses are left out.
measure: T/C

- molecule: "O=C1NC(=O)C(c2cccc(O)c2)N1 (configuration not stated)"
  test-value: "100 % of control"
- molecule: "CCC(C)N(C(C)=O)C(C)CC (configuration not stated)"
  test-value: "100 % of control"
- molecule: "CCC/C=C/CCN1CC1"
  test-value: "86 % of control"
- molecule: "CCCCCCCC(=O)N1CCCN(C(=O)CCCCCCC)C1"
  test-value: "100 % of control"
- molecule: "O=c1[nH]c2cnn(-c3ccccc3)c2c(=O)n1O"
  test-value: "97 % of control"
- molecule: "CCN(CC)CC(Cl)COc1ccccc1C (configuration not stated)"
  test-value: "91 % of control"
- molecule: "O=NN1CCCCC1"
  test-value: "104 % of control"
- molecule: "O=C(OCC1OC(n2cnc3c(=S)nc[nH]c32)C(OC(=O)c2ccc([N+](=O)[O-])cc2)C1OC(=O)c1ccc([N+](=O)[O-])cc1)c1ccc([N+](=O)[O-])cc1 (configuration not stated)"
  test-value: "121 % of control"
- molecule: "COc1cc2c(cc1OC)C1C(O)C(OC)C=C3CCN(C2)C31 (configuration not stated)"
  test-value: "100 % of control"
- molecule: "CCC(CCNC(=O)c1ccccc1)(CCNC(=O)c1ccccc1)[N+](=O)[O-]"
  test-value: "95 % of control"
- molecule: "O=C(O)C(Cc1ccccc1)Cc1ccccc1"
  test-value: "97 % of control"
- molecule: "Cc1c(C)c2cccc(C)c2[nH]c1=O"
  test-value: "95 % of control"

* * *

# T/C per record follows
System: L1210 leukemia ip in BDF1 mice, survival T/C
Test: NCI In Vivo Anticancer Drug Screen. Data for tumor model L1210 Leukemia (intraperitoneal) in B6D2F1 (BDF1) mice
Conditions: endpoint: mean survival time; dose: 100.0 mg/kg/injection; schedule: Q01DX009 (ip); vehicle: saline sonified; higher = longer survival
Inconclusive results and toxic doses are left out.

- molecule: "O=C(O)CCCC(=O)NC1CC2c3ccccc3C1c1ccccc12 (centres undefined)"
  T/C: "101 % of control"
- molecule: "COc1ccc2c(c1)CCC1CC(=O)C=C21 (centres undefined)"
  T/C: "113 % of control"
- molecule: "CC(/C=C/c1ccccc1)=N\\O"
  T/C: "91 % of control"
- molecule: "O=C1/C(=C/c2ccccc2)Cc2cccc(O)c21"
  T/C: "100 % of control"

* * *

System: L1210 leukemia ip in BDF1 mice, survival T/C
Experiment: NCI In Vivo Anticancer Drug Screen. Data for tumor model L1210 Leukemia (intraperitoneal) in B6D2F1 (BDF1) mice
Conditions: endpoint: mean survival time; dose: 400.0 mg/kg/injection; schedule: Q04DX003 (ip); vehicle: Klucel (hydroxypropylcellulose) (HPC); higher = longer survival
Toxic doses and inconclusive results are not listed.
# T/C listing for each entry below

- compound: "O=C1c2ccccc2C(c2ccccc2)(N(CCCl)CCCl)N1C1CCCCC1 (stereo not drawn)"
  T/C: "97 % of control"
- compound: "O=C(NCc1ccc([N+](=O)[O-])cc1)OCc1ccccc1"
  T/C: "96 % of control"
- compound: "Cc1ccc(S(=O)(=O)OCC2C(c3ccccc3)CCC(c3ccccc3)C2COS(=O)(=O)c2ccc(C)cc2)cc1 (stereo not drawn)"
  T/C: "100 % of control"
- compound: "O=C(Cl)C1CC2c3ccccc3C1([N+](=O)[O-])c1ccccc12 (stereo not drawn)"
  T/C: "98 % of control"
- compound: "O=P(Nc1ccc(Cl)c(Cl)c1)(N1CCCCC1)N1CCCCC1"
  T/C: "93 % of control"
- compound: "COc1cc(C)c(C2NC(=O)c3ccccc3N2)cc1C (stereo not drawn)"
  T/C: "103 % of control"
- compound: "NC(=O)c1nc2ccccc2nc1C(N)=O"
  T/C: "90 % of control"
- compound: "CC1(C)N=C(N)N=C(N)N1c1ccc(OCC(=O)Nc2ccccc2)c(Cl)c1"
  T/C: "92 % of control"
- compound: "O=C1C(Br)=Cc2cccc3cccc1c23"
  T/C: "87 % of control"
- compound: "CCOC(=O)/C(Cc1cc[n+]([O-])c2ccccc12)=N/O"
  T/C: "100 % of control"
- compound: "CCCc1ccc2c(c1)CCCC2"
  T/C: "94 % of control"
- compound: "CC(C)CN(CC(C)C)c1nn[nH]n1"
  T/C: "98 % of control"
- compound: "O=C1c2cc(Cl)ccc2-c2c1cc(Cl)cc2[N+](=O)[O-]"
  T/C: "98 % of control"
- compound: "CCC[n+]1nc2ccccc2c(=Nc2ccccc2[N+](=O)[O-])[n-]1"
  T/C: "101 % of control"
- compound: "Clc1ccc2c(c1)C([P+](c1ccccc1)(c1ccccc1)c1ccccc1)c1cc(Cl)cc(Cl)c1-2 (stereo not drawn)"
  T/C: "104 % of control"
- compound: "O=[N+]([O-])c1ccc2cn[nH]c2c1"
  T/C: "96 % of control"
- compound: "CCOC(=O)C1CCC(=O)N1C(=O)c1cc([N+](=O)[O-])cc([N+](=O)[O-])c1 (stereo not drawn)"
  T/C: "94 % of control"
- compound: "Cc1ccc(S(=O)(=O)Nc2ccc(Cl)c(Cl)c2)cc1"
  T/C: "94 % of control"
- compound: "c1ccc(CN=C2c3ccccc3C3(c4ccccc4)C2N3Cc2ccccc2)cc1 (stereo not drawn)"
  T/C: "97 % of control"
- compound: "COc1ccccc1/C=C/c1cnccn1"
  T/C: "104 % of control"
- compound: "C/C(=C/c1c(C)c([N+](=O)[O-])c(C)c(C)c1[N+](=O)[O-])C(=O)O"
  T/C: "101 % of control"
- compound: "O=[N+]([O-])c1cc(Cl)c(Cl)cc1N1CCCC1"
  T/C: "101 % of control"
- compound: "O=C(O)CCC1C2CC(C1C(=O)O)C1C3CCC(C3)C21 (stereo not drawn)"
  T/C: "95 % of control"
